Sourced from the supplement of paper PMC8728848

glycan array binding signal (z-score) listing for selected binders.
Target: Fuc(a1-2)Gal(b1-4)GlcNAc(b1-3)Gal(b1-4)GlcNAc(b1-3)Gal(b1-4)GlcNAc
Assay: glycan array binding signal (z-score within array); higher = stronger binding
Settings: glycan notation: IUPAC condensed, linker removed
Many of the other results were omitted from the sample, so the strongest signals are more common in it than they were.
# output: bare number, no unit

The examples below pair each entry with its known result.
BC2L-A (Burkholderia cenocepacia), Q1BKJ8_BURCA (protein) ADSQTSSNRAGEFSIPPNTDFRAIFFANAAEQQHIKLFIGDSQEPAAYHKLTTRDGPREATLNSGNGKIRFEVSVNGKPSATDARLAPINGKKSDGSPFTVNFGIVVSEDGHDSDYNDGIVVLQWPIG
0.018
Ecp6 (Cladosporium fulvum), B3VBK9 (protein) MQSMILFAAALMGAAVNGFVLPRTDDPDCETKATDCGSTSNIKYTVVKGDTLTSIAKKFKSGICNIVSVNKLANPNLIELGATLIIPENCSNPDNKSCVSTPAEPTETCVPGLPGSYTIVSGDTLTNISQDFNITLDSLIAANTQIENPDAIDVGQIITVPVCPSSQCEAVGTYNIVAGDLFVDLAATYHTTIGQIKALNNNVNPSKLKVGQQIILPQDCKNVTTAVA
-0.082
LecB PA7 (Pseudomonas aeruginosa) (protein) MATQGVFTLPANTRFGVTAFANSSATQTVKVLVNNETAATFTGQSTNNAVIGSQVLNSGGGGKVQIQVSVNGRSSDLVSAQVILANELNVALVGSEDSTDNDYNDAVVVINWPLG
3.71

Entry SefD (Salmonella enterica), Q9L6K6 (protein) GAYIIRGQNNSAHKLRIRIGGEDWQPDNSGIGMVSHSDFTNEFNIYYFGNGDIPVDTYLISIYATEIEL , glycan array binding signal (z-score) reported as -0.043
